assay: in vitro; conditions: human, KB cells (nasopharyngeal carcinoma)
Description: Toxicity evaluated against human nasopharyngeal carcinoma KB cell line
Listed compounds paired with reported CC50

The examples below pair each entry with its known result.
Challenge: Identify CC50 associated with the compound O=P(O)(O)CC(c1ccccn1)P(=O)(O)O (stereo not given)
Response given: < 1.1 µM

Challenge: Identify CC50 associated with the compound O=P(O)(O)C(O)(Cc1ccccc1)P(=O)(O)O
Response given: > 931 µM

Challenge: Identify CC50 associated with the compound O=P(O)(O)C(Nc1ncccc1OCc1ccccc1)P(=O)(O)O
Response given: > 764 µM

Challenge: Identify CC50 associated with the compound O=P(O)(O)C(Nc1ccc(Cl)cn1)P(=O)(O)O
Response given: > 991 µM

// moving on: another record for CC50
Challenge: Identify CC50 associated with the compound CCCCCCCCCC(O)(P(=O)(O)O)P(=O)(O)O
Response given: > 775 µM
